System: M14 melanoma
Protocol Notes: NCI tumour cell line growth inhibition, 48 h; in the data active = GI50 below about 0.43 µM; inactive = the rest
Classes used: active, inactive

{"Compound": "O=c1[nH]c(=O)c2cc3cc(C4CC(O)C(CO)O4)ccc3cc2[nH]1 (configuration not stated)", "Group Label": "inactive"}
{"Compound": "Cc1cc(Nc2ncc3c(n2)N(C)C(=O)N(c2cc(NC(=O)c4cccc(C(F)(F)F)c4)ccc2C)C3)n(C)n1", "Group Label": "active"}
{"Compound": "Cn1nc(C(F)(F)F)cc1-c1c[nH]c(OCc2ccc(Cl)cc2)c(-c2ccc(Cl)c(C(F)(F)F)c2)c1=O", "Group Label": "inactive"}
{"Compound": "COc1ccc2cc(C(=O)/C=C/c3ccc(N(C)C)cc3)ccc2c1", "Group Label": "inactive"}
{"Compound": "O=C([O][Hg][CH2]C1OCCOC1[CH2][Hg][O]C(=O)c1ccccc1)c1ccccc1 (configuration not stated)", "Group Label": "inactive"}
{"Compound": "Cc1ccc(-c2cc3c4c(nc5ccccc53)C(=O)c3cccnc3-c4n2)cc1", "Group Label": "inactive"}
{"Compound": "N#C[Se]CCN1C(=O)C2C(C1=O)[C@H]1C=C[C@@H]2S1 (some centres not stated)", "Group Label": "inactive"}

###

Attribute: TGI
Test system: OVCAR-8 ovarian
Protocol Notes: NCI tumour cell line growth inhibition, 48 h

{"Compound": "COc1cc2c(cc1OC)CC(=O)Nc1cc(OC)c(OC)cc1CC2", "TGI": "> 100 µM"}
{"Compound": "COC(=O)C1=COC(C)C2CN3CCc4c([nH]c5cc(OC)c(OC)cc45)C3CC12 (stereo not drawn)", "TGI": "> 100 µM"}
{"Compound": "N#Cc1c(N2CCOCC2)nc(=S)[nH]c1-c1ccccc1", "TGI": "> 100 µM"}
{"Compound": "C=C/C(C)=C\\CC1[C@](C)(O)CC[C@H]2C(C)(C)C(O)CC[C@]12C (stereo partly drawn)", "TGI": "> 100 µM"}
{"Compound": "CN1CCC2(CC1)NC(=O)c1c(c3ccc(Cl)c(Cl)c3n1C)C2C#N (stereo not drawn)", "TGI": "36.6 µM"}
{"Compound": "O=c1cc(CSc2c(-c3ccccc3)c(=O)n(-c3ccccc3)c(=S)n2-c2ccccc2)[nH]c(=O)[nH]1", "TGI": "> 100 µM"}
{"Compound": "O=C(OC1CCC2OOC1O2)c1ccc([N+](=O)[O-])cc1 (stereo not drawn)", "TGI": "> 100 µM"}
{"Compound": "O=C(c1ccccc1)C(c1ccccc1)C1(O)C(=O)Nc2ccc([N+](=O)[O-])cc21 (stereo not drawn)", "TGI": "> 100 µM"}
{"Compound": "O[C@H]1[C@H](O)[C@@H](O)[C@@]2(O)CC[C@@H]1N2", "TGI": "> 100 µM"}
{"Compound": "O=C(O)c1cc2c(cc1CC(Cc1ccc3c(c1)CCCC3)C(=O)O)CCCC2 (stereo not drawn)", "TGI": "> 100 µM"}
{"Compound": "CCCc1cc(=O)n2c(C(=O)Nc3cccc(C(=O)OCC)c3)c(C(=O)Nc3ccc(F)cc3)sc2n1", "TGI": "15 µM"}
{"Compound": "COc1ccc(C2=C(N)c3c(Cl)cccc3C2=O)cc1", "TGI": "> 100 µM"}
{"Compound": "OC[P+](CO)(CO)C12CC3CC(CC(C3)C1)C2", "TGI": "> 100 µM"}
{"Compound": "NC(=O)c1cccc(N=c2oc3ccc(Br)cc3cc2-c2nc3ccccc3[nH]2)c1", "TGI": "28.2 µM"}
{"Compound": "CC(=O)C1Cn2c(=O)c3cc4ccccc4cc3c(=O)n2C=C1C (stereo not drawn)", "TGI": "> 100 µM"}
{"Compound": "CC1=NNC(=O)C1C1CC(c2c[nH]c3ccccc23)=NN(C(N)=O)C1=O (stereo not drawn)", "TGI": "> 100 µM"}
{"Compound": "CC(C)C(=O)CC(c1ccc(Cl)cc1)N1N=C(C(C)C)CC1c1ccc(Cl)cc1 (stereo not drawn)", "TGI": "> 65.8 µM"}
{"Compound": "COC(=O)C1=C(OC(=O)/C(=C/c2ccccc2)c2ccc(Cl)cc2)C(C(=O)OC)[C@@]2(O)[C@@H](C(=O)OC)[C@H](C)C[C@@H]1[C@@H]2C(=O)OC (stereo partly drawn)", "TGI": "> 100 µM"}
{"Compound": "N#CCCN(CCC#N)c1ccc(/C=C(\\NC(=O)c2cc([N+](=O)[O-])ccc2Cl)C(=O)Nc2ccccc2)cc1", "TGI": "> 100 µM"}
{"Compound": "NC(N)=NC(N)=Nc1cnccn1", "TGI": "> 100 µM"}
{"Compound": "O=C1[C@@H]2C(c3ccccc3[N+](=O)[O-])=[N+](c3ccccc3)O[C@@H]2C(=O)N1c1ccc(Cc2ccc(N3C(=O)[C@H]4C(c5ccccc5[N+](=O)[O-])=[N+](c5ccccc5)O[C@H]4C3=O)cc2)cc1", "TGI": "> 100 µM"}
{"Compound": "Nc1nc(N)c(-c2ccccc2)c(C(=O)Nc2ccccc2)n1", "TGI": "> 100 µM"}
{"Compound": "Cc1ccc2c(c1)c(Sc1ccc(C(=O)NO)cc1)c1n2CN(C)CC1", "TGI": "4.99 µM"}
{"Compound": "C[C@]12CC[C@H]3[C@@H](CC=C4C[C@@H](O)CC[C@@]43C)[C@@H]1C/C(=C/c1ccccc1)[C@@H]2O", "TGI": "52.1 µM"}
{"Compound": "S=C(NCCNC(=S)[S][Sn]([c]1ccccc1)([c]1ccccc1)[c]1ccccc1)[S][Sn]([c]1ccccc1)([c]1ccccc1)[c]1ccccc1", "TGI": "0.202 µM"}
{"Compound": "CCOC(=O)C(Cc1cn(C(C)=O)c2ccccc12)P(=O)(OCC)OCC (stereo not drawn)", "TGI": "> 100 µM"}
{"Compound": "Cc1c2c(OCC(O)CN3CCN(c4ccccc4)CC3)nn(C)c(=O)c2c(C)n1-c1ccccc1 (stereo not drawn)", "TGI": "> 100 µM"}
{"Compound": "C/C(=N\\NC(=S)N(C)C)c1nc2ncccc2[nH]1", "TGI": "> 100 µM"}
{"Compound": "CCOC(=O)C1C(C)C2(C#N)C(=N)OC1(C)C2(C#N)C#N (stereo not drawn)", "TGI": "> 100 µM"}
{"Compound": "N#C[Se]CCN1C(=O)C2C(C1=O)[C@H]1C=C[C@@H]2S1 (stereo partly drawn)", "TGI": "5.26 µM"}
{"Compound": "COc1cc2ncnc(Nc3cccc(Cl)c3F)c2cc1OC(=O)N1CCN(C)C[C@H]1C", "TGI": "> 77.9 µM"}
{"Compound": "Cn1ncc2c(Nc3cccc(Cl)c3)nc(Nc3cccc(Cl)c3)nc21", "TGI": "> 100 µM"}
{"Compound": "O=C1C=CC2(C=C1)CCNC1=C2C(=O)c2ccccc2C1=O", "TGI": "> 100 µM"}
{"Compound": "CC/C(=C(/c1ccc(O)cc1)c1ccc(OCCN)cc1)c1ccccc1", "TGI": "9.94 µM"}
{"Compound": "Cn1c(=O)c2c(nc3sc4c(n32)C(=O)c2c(O)ccc(O)c2C4=O)n(C)c1=O", "TGI": "11 µM"}
{"Compound": "CCNC(=O)Nc1ccc(Oc2ccnc3ccc4c(ccn4C)c23)cc1", "TGI": "> 100 µM"}
{"Compound": "O=C(OCc1ccc([N+](=O)[O-])cc1)N1c2ccccc2[C@@]23O[C@]24CCC[C@H]3C#C/C=C\\C#C[C@H]14", "TGI": "> 100 µM"}
{"Compound": "Cc1cc(C)n(-c2ccnc3cc(Cl)ccc23)n1", "TGI": "> 100 µM"}
